Reference source for all entries: paper PMC3225805

Target: FLuc (Photinus pyralis luciferase) (Photinus pyralis, UniProt P08659)
Sequence (P08659 whole entry): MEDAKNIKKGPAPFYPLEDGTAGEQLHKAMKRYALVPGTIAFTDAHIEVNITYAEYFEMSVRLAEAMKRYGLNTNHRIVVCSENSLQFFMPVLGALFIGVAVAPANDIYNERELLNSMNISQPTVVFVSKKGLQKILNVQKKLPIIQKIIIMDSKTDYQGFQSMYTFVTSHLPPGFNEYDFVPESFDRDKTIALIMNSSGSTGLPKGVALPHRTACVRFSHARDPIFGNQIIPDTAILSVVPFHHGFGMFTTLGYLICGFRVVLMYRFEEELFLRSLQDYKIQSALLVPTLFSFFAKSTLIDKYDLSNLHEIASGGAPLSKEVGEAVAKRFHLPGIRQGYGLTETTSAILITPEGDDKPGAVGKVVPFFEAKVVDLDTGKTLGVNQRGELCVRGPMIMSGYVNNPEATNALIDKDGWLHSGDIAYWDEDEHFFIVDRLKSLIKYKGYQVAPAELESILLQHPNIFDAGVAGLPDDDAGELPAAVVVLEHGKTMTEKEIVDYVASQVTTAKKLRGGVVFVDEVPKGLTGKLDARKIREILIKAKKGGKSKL
Assay: luminescence inhibition, 1536-well CRC
Format: biochemical
assay.endpoint: pIC50
Recall that pIC50 is obtained by taking minus log10 of the concentration measured in molar.

# returns recorded pIC50 (system: FLuc (Photinus pyralis luciferase) (Photinus pyralis, UniProt P08659)) for O=C1O/C(=C\c2ccc(O)cc2)C(O)=C1c1ccc(O)cc1
5.85

----------
Biological target: LmLuc (Luciola mingrelica luciferase) (Luciola mingrelica, UniProt Q26304)
Sequence (Q26304 1-548): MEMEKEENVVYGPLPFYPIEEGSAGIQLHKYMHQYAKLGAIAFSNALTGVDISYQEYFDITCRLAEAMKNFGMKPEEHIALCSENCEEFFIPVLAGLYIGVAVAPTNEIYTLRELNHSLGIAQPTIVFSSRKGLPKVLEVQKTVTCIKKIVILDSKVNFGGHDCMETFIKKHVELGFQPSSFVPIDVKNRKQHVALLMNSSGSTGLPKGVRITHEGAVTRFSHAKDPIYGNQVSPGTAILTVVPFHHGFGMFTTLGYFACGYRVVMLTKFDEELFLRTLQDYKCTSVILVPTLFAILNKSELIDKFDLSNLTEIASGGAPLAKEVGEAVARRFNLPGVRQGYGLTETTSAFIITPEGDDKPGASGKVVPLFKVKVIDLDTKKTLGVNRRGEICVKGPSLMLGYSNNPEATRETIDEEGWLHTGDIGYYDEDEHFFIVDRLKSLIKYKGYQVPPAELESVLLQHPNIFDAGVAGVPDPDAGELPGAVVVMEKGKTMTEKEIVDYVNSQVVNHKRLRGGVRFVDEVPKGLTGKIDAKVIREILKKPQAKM
Assay: luminescence inhibition, 1536-well CRC
Type: biochemical
assay.endpoint: IC50 (µM)
Value expressed in µM; do not type the unit.

Give LmLuc (Luciola mingrelica luciferase) (Luciola mingrelica, UniProt Q26304) IC50 for O=C1O/C(=C\c2ccc(O)cc2)C(O)=C1c1ccc(O)cc1
3.6
